pKi: −log10 of the molar value.
# merged literature set: pKi with Prothrombin (Bos taurus)
QUANTITY NAME: pKi

Please review the entries below; each comes with its answer.
Cc1ccc(S(=O)(=O)N[C@@H](Cc2cccc(C(=N)N)c2)C(=O)N2CCOCC2)cc1: 6.77
N=C(N)c1ccc(CNC(=O)[C@@H]2Cc3ccc(cc3)NC(=O)CN3CCN(CC3)CC(=O)Nc3ccc(cc3)C[C@@H](N)C(=O)N2)cc1: 3.76
N=C(N)c1ccc(CNC(=O)[C@@H]2Cc3ccc(cc3)NC(=O)CN3CCN(CC3)CC(=O)Nc3ccc(cc3)C[C@@H](NC(=O)CCc3ccccc3)C(=O)N2)cc1: 5.06

a. CNC(=O)[C@H](Cc1cccc(C(=N)N)c1)NS(=O)(=O)c1c(C)cc(OC)c(C)c1C
b. CC(C)(C)NC(=O)NC1CCN(C(=O)[C@H](Cc2cccc(C(=N)N)c2)NS(=O)(=O)c2cccc(-c3ccc(N)nc3)c2)CC1
Q: Form: Entry with minimum pKi (choose one): a / b Field: selected label. Fill in the label of the entry you choose.
A: a

---

Below, Ki values reported for Prothrombin (Bos taurus) across several publications.
QUANTITY NAME: Ki (µM)

Illustrative cases are given below, each with its answer.
CCn1ccc2cc(C(=N)N)ccc21: 42.8
O=C1OC[C@@H](O)[C@H]([C@@H]2OC(=O)c3cc(O)c(O)c(O)c3-c3c(O)c(O)c(O)c4c3C(=O)O[C@H]2[C@H]4O)OC(=O)c2cc(O)c(O)c(O)c2-c2c1cc(O)c(O)c2O: 0.83
CC(C)NC(=O)[C@H](Cc1cccc(C(=N)N)c1)NS(=O)(=O)c1ccc2ccccc2c1: 6.19

I. COC(=O)N[C@@H]1Cc2ccc(cc2)NC(=O)CCN2CCN(CCC(=O)Nc3ccc(cc3)C[C@@H](C(=O)NCc3ccc(C(=N)N)cc3)NC1=O)CC2
II. N=C(N)c1ccc(Cn2ccc3cc(C(=N)N)ccc32)c(Cl)c1
III. CNC(=O)NC1CCN(C(=O)[C@H](Cc2cccc(C(=N)N)c2)NS(=O)(=O)c2cccc(-c3ccc(OC)cc3OC)c2)CC1
IV. CNC(=O)NCCC1CCN(C(=O)[C@H](Cc2cccc(C(=N)N)c2)NS(=O)(=O)c2cccc(-c3ccc(OC)cc3OC)c2)CC1
V. Cc1cc(C)c(S(=O)(=O)N[C@@H](Cc2cccc(C(=N)N)c2)C(=O)N2CCC(C)CC2)c(C)c1
Q: Please rank these compounds by Ki in descending order. Thanks in advance for listing the labels in the requested order.
A: II, I, III, V, IV

---

pKi: −log10 of the molar value.
Prothrombin (Bos taurus, UniProt P00735) pKi, compiled from various sources.
QUANTITY NAME: pKi

1. Cc1c(C)c(S(=O)(=O)N[C@@H](Cc2cccc(C(=N)N)c2)C(=O)N2CCC(C)CC2)c(C)c2c1OC(C)(C)CC2
2. O=C1OC[C@@H](O)[C@H]([C@@H]2OC(=O)c3cc(O)c(O)c(O)c3-c3c(O)c(O)c(O)c4c3C(=O)O[C@H]2[C@@H]4O)OC(=O)c2cc(O)c(O)c(O)c2-c2c1cc(O)c(O)c2O
3. CNC(=O)C1CCN(C(=O)[C@H](Cc2cccc(C(=N)N)c2)NS(=O)(=O)c2ccc3ccccc3c2)CC1
4. N=C(N)c1cccc(C[C@H](NS(=O)(=O)c2ccc3ccccc3c2)C(=O)N2CC[C@@H]3CCCC[C@H]32)c1
Q: Task for the reader: rank each entry by its pKi, from the minimum upward. Your reply should list the labels following the order given in the request.
A: 2, 4, 3, 1

A. CC1CNc2c(cccc2S(=O)(=O)NC(CCCNC(=N)N)C(=O)N2CCc3ccccc3C2)C1 (configuration not stated)
B. N=C(N)c1cccc(C[C@H](NS(=O)(=O)c2ccc3ccccc3c2)C(=O)N2CCC(N3CCCCC3)CC2)c1
Q: Endpoint returns whichever of A and B has the numerically higher pKi. Pick one and reply with its label.
A: A

A. CCC1CCN(C(=O)C(CCCN=C(N)N)NS(=O)(=O)c2cccc3c2NCC(C)C3)CC1 (configuration not stated)
B. CC(C)c1cc(C(C)C)c(S(=O)(=O)NC(Cc2cccc(C(N)N)c2)C(=O)N2CCN(C(=O)OCc3ccccc3)CC2)c(C(C)C)c1 (configuration not stated)
Q: // compare: A vs B , metric pKi, want the smaller Write down the label of the entry you select.
A: B

A. COC(=O)[C@H]1[C@@H](C)CCCN1C(=O)[C@H](Cc1cccc(C(=N)N)c1)NS(=O)(=O)c1ccc2ccccc2c1
B. CNC(=O)[C@H]1CCCCN1C(=O)[C@H](Cc1cccc(C(=N)N)c1)NS(=O)(=O)c1ccc2ccccc2c1
C. CC1CCN(C(=O)[C@H](Cc2cccc(C(=N)N)c2)NS(=O)(=O)C[C@]23CC[C@H](CC2=O)C3(C)C)CC1
Q: Thanks in advance: please rank these 3 entries by pKi, highest to lowest. Record the ranking as a list of labels in the requested order.
A: C, A, B
(C: 7.85, A: 6.28, B: 5.64)

1. C[C@H]1CNc2c(cccc2S(=O)(=O)NC(CCCNC(=N)N)C(=O)N2CCC(CCO)CC2)C1 (some centres not stated)
2. COC(=O)[C@H]1Cc2ccccc2CN1C(=O)[C@H](Cc1cccc(C(=N)N)c1)NS(=O)(=O)c1ccc2ccccc2c1
Q: Form: Entry with minimum pKi (choose one): 1 / 2 Pick one and reply with its label.
A: 2
(2: 6.70, 1: 7.34)

a. CCOc1ccc(-c2cccc(S(=O)(=O)N[C@@H](Cc3cccc(C(=N)N)c3)C(=O)N3CCC(CCN)CC3)c2)c(Cl)c1
b. CC(C)(C)NC(=O)NC1CCN(C(=O)[C@H](Cc2cccc(C(=N)N)c2)NS(=O)(=O)c2cccc(-c3ccc(COC(C)(C)C)cc3)c2)CC1
Q: Recorded pKi values differ for a and b ; which one is higher? Give the label of your selection.
A: a
(a: 6.40, b: 5.60)

A. N=C(N)c1ccc2c(ccn2Cc2cccc(N)c2)c1
B. N=C(N)NCCCCNC(=O)[C@@H]1Cc2ccc(cc2)NC(=O)CCN2CCN(CCC(=O)Nc3ccc(cc3)C[C@@H](NS(=O)(=O)NC3CCCCC3)C(=O)N1)CC2
Q: Looking at recorded values for pKi, does A or B come in lower? Write down the label of the entry you select.
A: A
(A: 4.81, B: 5.77)
